Recorded values, source patent US10184116B2.

- Protocol text: Luminescence activity of ZZ-fused WNanoKAZ mutants in crude enzyme solution (Example 10)
- Assay type: biochemical
- Experimental context: coelenterazine substrate, Imax
Catalogue of fold higher activity than the relative activity 7.4 of dnKAZ readings, one per entry.
Give your result in fold as a bare value.

Some solved entries appear below for comparison.
Which measured fold higher activity than the relative activity 7.4 of dnKAZ value corresponds to WNanoKAZ-I138Y: single amino acid-substituted WNanoKAZ mutant I138Y; SEQ ID NO: 14 (protein) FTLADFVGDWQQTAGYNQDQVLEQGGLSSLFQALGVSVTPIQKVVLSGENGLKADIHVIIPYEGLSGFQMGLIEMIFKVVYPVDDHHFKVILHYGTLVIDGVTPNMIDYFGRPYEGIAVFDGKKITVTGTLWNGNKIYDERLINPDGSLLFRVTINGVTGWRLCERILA ?
1.1

Which measured fold higher activity than the relative activity 7.4 of dnKAZ value corresponds to WNanoKAZ-V90I: single amino acid-substituted WNanoKAZ mutant, valine 90 back to isoleucine; SEQ ID NO: 8 (protein) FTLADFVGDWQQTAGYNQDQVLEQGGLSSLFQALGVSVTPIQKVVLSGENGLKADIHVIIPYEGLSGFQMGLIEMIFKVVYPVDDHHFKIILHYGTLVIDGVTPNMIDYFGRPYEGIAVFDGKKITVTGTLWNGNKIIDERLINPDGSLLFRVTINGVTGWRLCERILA ?
4.6

Which measured fold higher activity than the relative activity 7.4 of dnKAZ value corresponds to WNanoKAZ: chimeric protein: positions 1-82 of native KAZ and 83-169 of nanoKAZ; SEQ ID NO: 6; I90V, P115E, Q124K, Y138I, N166R (protein, chimeric protein: positions 1-82 of native KAZ and 83-169 of nanoKAZ; I90V, P115E, Q124K, Y138I, N166R) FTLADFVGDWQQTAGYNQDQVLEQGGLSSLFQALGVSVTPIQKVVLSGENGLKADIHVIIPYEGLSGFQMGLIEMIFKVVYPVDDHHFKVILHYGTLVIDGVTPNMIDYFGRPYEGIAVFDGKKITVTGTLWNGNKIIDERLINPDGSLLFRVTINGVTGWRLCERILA ?
8.6

Which measured fold higher activity than the relative activity 7.4 of dnKAZ value corresponds to WNanoKAZ-K124Q: single amino acid-substituted WNanoKAZ mutant K124Q; SEQ ID NO: 12 (protein) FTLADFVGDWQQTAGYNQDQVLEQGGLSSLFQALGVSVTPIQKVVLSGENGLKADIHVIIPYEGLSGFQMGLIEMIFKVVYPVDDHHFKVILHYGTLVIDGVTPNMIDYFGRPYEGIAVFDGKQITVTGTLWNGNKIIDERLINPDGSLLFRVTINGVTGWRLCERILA ?
4.6

Which measured fold higher activity than the relative activity 7.4 of dnKAZ value corresponds to WNanoKAZ-R166N: single amino acid-substituted WNanoKAZ mutant R166N; SEQ ID NO: 16 (protein) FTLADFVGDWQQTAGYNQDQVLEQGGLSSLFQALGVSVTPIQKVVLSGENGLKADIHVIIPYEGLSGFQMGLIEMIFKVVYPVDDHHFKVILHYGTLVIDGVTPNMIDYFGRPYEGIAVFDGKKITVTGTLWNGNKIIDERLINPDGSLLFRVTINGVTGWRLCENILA ?
4.3

Next molecule, please.
Which measured fold higher activity than the relative activity 7.4 of dnKAZ value corresponds to WNanoKAZ-E115P: WNanoKAZ with substitution of proline for glutamic acid at position 115; SEQ ID NO: 10 (protein) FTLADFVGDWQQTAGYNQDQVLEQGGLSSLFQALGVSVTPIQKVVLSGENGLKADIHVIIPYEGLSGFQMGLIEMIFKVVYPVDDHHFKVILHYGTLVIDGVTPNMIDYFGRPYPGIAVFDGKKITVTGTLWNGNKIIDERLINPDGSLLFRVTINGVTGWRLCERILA ?
4.2
